Exercise: state measured CC50 for each of the compounds provided.
Tested on: HL-60
assay-overview: Cytotoxicity against human HL60 cells after 24 hrs by WST-1 assay
Type: functional
measurement-context: HL-60, 24 h, read-out: LC50 (the source's name)
Give bare numbers, in µM.

Please review the following examples before continuing.
INSERT INTO measurements (compound, unit_tag, recorded_number) VALUES
  ('O=c1c(=O)c2cccc3ccc4cccc1c4c32', 'µM', 3.41),
  ('O=C1C(=O)c2cccnc2-c2ncccc21', 'µM', 1.57),
  ('O=C1C(=O)c2ccccc2-c2ccccc21 [9,10-PHENANTHRENEQUINONE]', 'µM', 3.38);

Okay, next one:
Provide the reported CC50 (system: HL-60) for O=C1C=Cc2ccccc2C1=O [1,2-NAPHTHOQUINONE]
7.14
